test system: KURAMOCHI; experiment: drug sensitivity score (DSS2) on cancer cell count; higher = more sensitive; extreme values may be limits of the assay; details: co-cultured fibroblast: BJHTERT; 72 h
Heads up, the class ranges for drug sensitivity score are low: < 1 DSS; intermediate: ≥ 1 DSS and < 9 DSS; high: ≥ 9 DSS

## Input Record `CCn1c(-c2nonc2N)nc2c(C#CC(C)(C)O)ncc(OC[C@H]3CCCNC3)c21` — which class?
## Output intermediate

## Input Record `O=C(CCCCCCC(=O)Nc1ccc([C@H]2O[C@@H](CSc3nc(-c4ccccc4)c(-c4ccccc4)o3)C[C@@H](c3ccc(CO)cc3)O2)cc1)NO` — which class?
## Output intermediate

## Input Record `N#CC1(c2ccc(NC(=O)c3cccnc3NCc3ccncc3)cc2)CCCC1` — which class?
## Output low

## Input Record `COc1ncc(-c2ccc3nccc(-c4ccnnc4)c3c2)cc1NS(=O)(=O)c1ccc(F)cc1F` — which class?
## Output high

## Input Record `CCCCOc1nc(N)c2c(n1)N(Cc1cccc(CN3CCCC3)c1)CC(=O)N2` — which class?
## Output intermediate

## Input Record `NS(=O)(=O)OC[C@@H]1C[C@@H](n2ccc3c(N[C@H]4CCc5ccccc54)ncnc32)C[C@@H]1O` — which class?
## Output high

## Input Record `COc1c(C)cnc(Cn2cnc3c(Cl)nc(N)nc32)c1C` — which class?
## Output high

## Input Record CN1CCN(C2CCC(n3cc(-c4ccc(Oc5ccccc5)cc4)c4c(N)ncnc43)CC2)CC1 (stereo unspecified) — which class?
## Output high
